SYSTEM: Mouse PPARα LBD fusion protein (Mus musculus, UniProt P23204)
Sequence (P23204 239-466): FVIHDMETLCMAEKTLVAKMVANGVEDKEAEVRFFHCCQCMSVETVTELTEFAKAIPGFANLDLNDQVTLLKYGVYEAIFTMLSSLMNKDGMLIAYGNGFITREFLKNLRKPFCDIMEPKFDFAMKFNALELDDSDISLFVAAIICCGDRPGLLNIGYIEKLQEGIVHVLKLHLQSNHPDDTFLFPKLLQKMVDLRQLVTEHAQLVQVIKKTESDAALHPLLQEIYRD
TEST_NAME: Transcription activation potential, GAL4 luciferase reporter in C3A cells
Type: cell-based
MEASUREMENT_CONDITIONS: 100 μM, Table 20a
Recorded transcription activation potential (luciferase) ± standard deviation for the following molecules
READOUT_LABEL: transcription activation potential (luciferase) ± standard deviation

> print(dat)
                                   molecule      value.observed
1            Cc1cccc(C)c1COc1cccc(C(=O)O)c1    11.8 ± 8.95 LCPS
2  Cc1cccc(Nc2cc(Cl)nc(SCC(=O)O)n2)c1C [Wy, reference compound]  325.3 ± 91.83 LCPS
3     Cc1cccc(C)c1COc1cccc(C(=O)CCC(=O)O)c1   15.37 ± 6.21 LCPS
4         Cc1cccc(C)c1COc1cccc(CCCC(=O)O)c1    6.13 ± 0.17 LCPS
5           Cc1cccc(C)c1COc1cccc(CC(=O)O)c1  201.5 ± 50.84 LCPS

Every entry's value here was drawn from patent US7932290B2.
